# study.target: NIM1 (human)
# measurement.protocol: KINOMEscan competition binding
# stated.conditions: compound 10.0 µM

| molecule.smiles | kinase still bound, per cent of control |
| --- | --- |
| COc1cc(C(=O)N2CCC(N3CCN(C)CC3)CC2)ccc1Nc1ncc2c(n1)N(C)c1ccccc1C(=O)N2C | 100% |
| CN(C)C/C=C/C(=O)Nc1ccc(C(=O)Nc2cccc(Nc3nccc(-c4cccnc4)n3)c2)cc1 | 94% |
| NC(=O)Nc1cc(-c2cccc(F)c2)sc1C(=O)N[C@@H]1CCCNC1 | 13% |
| N#CCNC(=O)c1ccc(-c2ccnc(Nc3ccc(N4CCOCC4)cc3)n2)cc1 | 100% |
| COCC(=O)NC/C=C/c1ccc2ncnc(Nc3ccc(Oc4ccc(C)nc4)c(C)c3)c2c1 | 87% |
| COc1cc2ncnc(-n3nc(-c4ccccn4)nc3N)c2cc1OC | 89% |
| CNC(=O)c1cc(Oc2ccc(NC(=O)Nc3ccc(Cl)c(C(F)(F)F)c3)cc2)ccn1 | 97% |
| CCN(CC)CCCCNc1ncc2c(n1)N(C)C(=O)N(c1c(Cl)c(OC)cc(OC)c1Cl)C2 | 100% |
| C=CC(=O)Nc1cc(-n2c(=O)ccc3cnc4ccc(-c5cn[nH]c5)cc4c32)ccc1C | 89% |

====

# study.target: FGFR4 (human)
# measurement.protocol: KINOMEscan competition binding
# stated.conditions: compound 10.0 µM
Parameter kinase still bound, per cent of control: see the listing below.

| molecule.smiles | kinase still bound, per cent of control / % |
| --- | --- |
| CNC(=O)c1cc(Oc2ccc(NC(=O)Nc3ccc(Cl)c(C(F)(F)F)c3)cc2)ccn1 | 65 |
| COc1cc(N2CCN(C)CC2)ccc1Nc1ncc2c(n1)N(C)c1ccccc1C(=O)N2C | 5.6 |
| CCN(CC)CCCCNc1ncc2c(n1)N(C)C(=O)N(c1c(Cl)c(OC)cc(OC)c1Cl)C2 | 0.75 |
| COc1cc2ncnc(-n3nc(-c4ccccn4)nc3N)c2cc1OC | 96 |
| C=CC(=O)Nc1cc(-n2c(=O)ccc3cnc4ccc(-c5cn[nH]c5)cc4c32)ccc1C | 100 |
| O=C(Nc1cccc(Nc2ncc(Br)c(NCCc3cnc[nH]3)n2)c1)N1CCCC1 | 1.8 |
| CNC(=O)c1ccc(Nc2cc(Nc3ccccc3S(=O)(=O)C(C)C)c3cc[nH]c3n2)nc1 | 100 |
| COc1cc(C(=O)N2CCC(N3CCN(C)CC3)CC2)ccc1Nc1ncc2c(n1)N(C)c1ccccc1C(=O)N2C | 28 |
| Cc1n[nH]c2ccc(-c3cncc(OC[C@@H](N)Cc4c[nH]c5ccccc45)c3)cc12 | 100 |

====

kinase still bound, per cent of control values by entry
# study.target: TBK1 (human) (UniProt Q9UHD2)
# Sequence (Q9UHD2 whole entry, looked up): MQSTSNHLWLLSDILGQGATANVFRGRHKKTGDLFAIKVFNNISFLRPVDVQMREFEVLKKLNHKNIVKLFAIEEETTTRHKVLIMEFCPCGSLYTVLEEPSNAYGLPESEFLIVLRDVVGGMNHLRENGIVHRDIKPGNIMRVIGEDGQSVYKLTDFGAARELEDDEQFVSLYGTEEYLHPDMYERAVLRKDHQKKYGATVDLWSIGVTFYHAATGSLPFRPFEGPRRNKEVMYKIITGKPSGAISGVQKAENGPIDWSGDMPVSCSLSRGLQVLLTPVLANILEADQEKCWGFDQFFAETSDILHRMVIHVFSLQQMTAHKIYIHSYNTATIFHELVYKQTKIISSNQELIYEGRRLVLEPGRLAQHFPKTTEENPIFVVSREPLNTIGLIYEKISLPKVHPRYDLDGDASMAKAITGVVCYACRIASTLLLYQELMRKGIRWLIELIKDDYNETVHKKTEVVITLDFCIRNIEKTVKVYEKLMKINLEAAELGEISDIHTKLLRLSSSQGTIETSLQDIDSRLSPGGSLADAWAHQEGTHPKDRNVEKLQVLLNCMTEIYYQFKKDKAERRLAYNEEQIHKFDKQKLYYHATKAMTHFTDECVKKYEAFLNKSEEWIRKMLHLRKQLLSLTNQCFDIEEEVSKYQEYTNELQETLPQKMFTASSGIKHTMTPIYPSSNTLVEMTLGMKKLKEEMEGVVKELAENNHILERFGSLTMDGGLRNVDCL
# measurement.protocol: KINOMEscan competition binding
# stated.conditions: compound 10.0 µM

| molecule.smiles | kinase still bound, per cent of control |
| --- | --- |
| O=C1NC(=O)/C(=C/c2ccc3nccc(-c4ccncc4)c3c2)S1 | 29% |
| COCC(=O)NC/C=C/c1ccc2ncnc(Nc3ccc(Oc4ccc(C)nc4)c(C)c3)c2c1 | 90% |
| COc1cc(C(=O)N2CCC(N3CCN(C)CC3)CC2)ccc1Nc1ncc2c(n1)N(C)c1ccccc1C(=O)N2C | 97% |
| O=c1cc(N2CCOCC2)oc2c(-c3cccc4c3sc3ccccc34)cccc12 | 84% |
| CNC(=O)c1cc(Oc2ccc(NC(=O)Nc3ccc(Cl)c(C(F)(F)F)c3)cc2)ccn1 | 100% |
| CN(C)C/C=C/C(=O)Nc1ccc(C(=O)Nc2cccc(Nc3nccc(-c4cccnc4)n3)c2)cc1 | 38% |
| NC(=O)Nc1cc(-c2cccc(F)c2)sc1C(=O)N[C@@H]1CCCNC1 | 4.8% |
| CCN(CC)CCCCNc1ncc2c(n1)N(C)C(=O)N(c1c(Cl)c(OC)cc(OC)c1Cl)C2 | 100% |
| CCN1CCN(C(=O)Cc2ccc(Nc3ncc(F)c(Nc4ccc(C(=O)Nc5ccccc5Cl)cc4)n3)cc2)CC1 | 5.6% |
| C[C@@H](Oc1cc(-c2cnn(C3CCNCC3)c2)cnc1N)c1c(Cl)ccc(F)c1Cl | 8.7% |
| COc1cc2ncnc(-n3nc(-c4ccccn4)nc3N)c2cc1OC | 24% |
| COc1ccc(N(C(=O)Oc2c(C)cccc2C)c2ccnc(Nc3ccc(N4CCN(C)CC4)cc3)n2)c(OC)c1 | 74% |
| N#CCNC(=O)c1ccc(-c2ccnc(Nc3ccc(N4CCOCC4)cc3)n2)cc1 | 10% |
| CS(=O)(=O)N1CCN(Cc2cc3nc(-c4cccc5[nH]ncc45)nc(N4CCOCC4)c3s2)CC1 | 100% |
| C=CC(=O)Nc1cc(-n2c(=O)ccc3cnc4ccc(-c5cn[nH]c5)cc4c32)ccc1C | 100% |
| COc1cc2ncn(-c3cc(OCc4ccccc4C(F)(F)F)c(C(N)=O)s3)c2cc1OC | 83% |
| COc1cc(N2CCN(C)CC2)ccc1Nc1ncc2c(n1)N(C)c1ccccc1C(=O)N2C | 100% |
| O=C(Nc1cccc(Nc2ncc(Br)c(NCCc3cnc[nH]3)n2)c1)N1CCCC1 | 0.7% |

Values from the kinase profiling compilation of Christmann-Franck et al. (2016)
